Target: MERTK (UniProt Q12866)
Sequence (Q12866 whole entry, looked up): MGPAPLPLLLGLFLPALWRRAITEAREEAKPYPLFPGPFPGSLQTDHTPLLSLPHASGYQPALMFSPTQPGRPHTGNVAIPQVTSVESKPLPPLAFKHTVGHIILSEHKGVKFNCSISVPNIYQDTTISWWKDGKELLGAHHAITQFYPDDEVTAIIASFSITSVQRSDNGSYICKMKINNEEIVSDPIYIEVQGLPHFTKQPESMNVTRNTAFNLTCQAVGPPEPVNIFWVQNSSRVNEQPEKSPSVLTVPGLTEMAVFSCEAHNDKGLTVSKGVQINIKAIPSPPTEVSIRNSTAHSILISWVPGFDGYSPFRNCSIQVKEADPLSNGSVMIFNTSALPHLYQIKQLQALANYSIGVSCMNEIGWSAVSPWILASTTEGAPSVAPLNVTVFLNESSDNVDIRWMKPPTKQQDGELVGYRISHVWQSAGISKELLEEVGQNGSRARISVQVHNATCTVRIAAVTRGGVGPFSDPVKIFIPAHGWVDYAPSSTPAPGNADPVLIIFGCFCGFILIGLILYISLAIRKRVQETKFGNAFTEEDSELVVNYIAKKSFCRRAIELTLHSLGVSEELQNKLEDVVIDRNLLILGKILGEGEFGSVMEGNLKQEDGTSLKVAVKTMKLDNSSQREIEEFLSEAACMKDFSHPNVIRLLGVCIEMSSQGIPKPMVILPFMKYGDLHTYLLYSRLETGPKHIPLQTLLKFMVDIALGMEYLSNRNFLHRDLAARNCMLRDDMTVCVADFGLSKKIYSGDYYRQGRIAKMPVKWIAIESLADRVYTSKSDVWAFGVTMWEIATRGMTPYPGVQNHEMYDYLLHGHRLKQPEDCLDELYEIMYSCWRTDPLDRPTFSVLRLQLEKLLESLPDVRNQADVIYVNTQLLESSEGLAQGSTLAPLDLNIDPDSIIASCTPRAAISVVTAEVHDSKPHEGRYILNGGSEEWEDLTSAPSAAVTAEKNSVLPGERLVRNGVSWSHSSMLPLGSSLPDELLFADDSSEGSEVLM
Assay: phosphorylation enrichment, bacterial display (enrichment ratio); higher = better substrate or ligand; peptides without Tyr show the background;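 also: 11-residue human phosphosite peptides and single-mutation variants displayed on the E. coli surface, counted by deep sequencing, each peptide's frequency after selection divided by its frequency in the unselected input library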;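 also: frequency after pTyr selection over input frequency; kinase dosed for 20-30% of maximal phosphorylation in three min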
Item-by-item account of phosphorylation enrichment
// return just the number, without any unit appended

ETGEPCRLSPE [EIF4G1_Y311_Y311C] | 0.536
ALIKAYVKAVA [SMN1_Y43_D44V] | 0.481
RKKLFYKADGE [SERPINC1_Y272_E269K] | 0.531
NGTVSYAIVAG [CDH23_Y1672_T1671S] | 0.792
PSSNLYYRCLT [CNGA3_Y168_W171C] | 3.88

Which phosphorylation enrichment reading was recorded for the sequence GFILMYDITNE [RAB3C_Y110] ?
0.678

Further, for YARECYSALPQ [SARS2_Y52_G51C] ?
1.7

Continue with LHSEAYLKFNE [PBRM1_Y1610_I1614N_YF]
0.737

Let us now turn to GQKTLYSFFSP [UNG_Y8]
10.3

# repeat for PEVCDYGLGGG [GSTO1_Y239_A236V]
0.837
